# Test system: 857933-349-R-J2-PDC complex spheroids, viability
# Run Description: Anticancer human tumor 857933-349-R-J2-PDC patient-derived colon adenocarcinoma cell line growth inhibition [GQUAD]
# Condition Info: second compound 10 µM; first compound 0.0316 µM; hits give low values
I'd be grateful if you could share measured viability, T/C for these entries.

Determine from records and report viability, T/C for O=C(NO)c1cnc(N2CCN(S(=O)(=O)c3ccc4ccccc4c3)CC2)nc1 + CN(C)c1ccc(Nc2c3ccc(NC(=O)CCN4CCCC4)cc3nc3cc(NC(=O)CCN4CCCC4)ccc23)cc1
66.2%

Determine from records and report viability, T/C for Nc1ccn(C2OC(CO)C(O)C2(F)F)c(=O)n1 (stereo unspecified) + Cc1cnc(CNC(=O)c2c(=O)c3ccc(N4CCCN(C)CC4)nc3n3c2sc2ccccc23)cn1
1.6%

Determine from records and report viability, T/C for O=C(c1cc(Cc2n[nH]c(=O)c3ccccc23)ccc1F)N1CCN(C(=O)C2CC2)CC1 + Cc1[nH]c2ccc(F)cc2c1-c1nc2c3cccnc3c3ncccc3c2[nH]1
99.9%

Determine from records and report viability, T/C for COc1ncnc(C2CC2)c1-c1ncc2cnn(Cc3ccc(-c4nc(C(F)(F)F)cn4C(C)C)cc3)c2n1 + Cc1[nH]c2ccc(F)cc2c1-c1nc2c3cccnc3c3ncccc3c2[nH]1
86.3%

Determine from records and report viability, T/C for COc1cc(C2c3cc4c(cc3C(OC3OC5COC(C)OC5C(O)C3O)C3COC(=O)C23)OCO4)cc(OC)c1O (stereo unspecified) + Cc1cnc(CNC(=O)c2c(=O)c3ccc(N4CCCN(C)CC4)nc3n3c2sc2ccccc23)cn1
1.65%

Determine from records and report viability, T/C for COc1ccc([C@@H](O)c2cc(-c3ncnc4cc(N5CCOCC5)ccc34)c(F)cc2Cl)nn1 + CN(C)c1ccc(Nc2c3ccc(NC(=O)CCN4CCCC4)cc3nc3cc(NC(=O)CCN4CCCC4)ccc23)cc1
73.5%

Determine from records and report viability, T/C for Nc1ccn(C2OC(CO)C(O)C2(F)F)c(=O)n1 (stereo unspecified) + CN(C)c1ccc(Nc2c3ccc(NC(=O)CCN4CCCC4)cc3nc3cc(NC(=O)CCN4CCCC4)ccc23)cc1
73.8%

Determine from records and report viability, T/C for CC(C)n1c(=O)n(C)c2cnc3cc(F)c(-c4ccc(OCCCN5CCCCC5)nc4)cc3c21 + Cc1[nH]c2ccc(F)cc2c1-c1nc2c3cccnc3c3ncccc3c2[nH]1
102%

Determine from records and report viability, T/C for O=C(NO)c1cnc(N2CCN(S(=O)(=O)c3ccc4ccccc4c3)CC2)nc1 + Cc1cnc(CNC(=O)c2c(=O)c3ccc(N4CCCN(C)CC4)nc3n3c2sc2ccccc23)cn1
0.16%

Determine from records and report viability, T/C for CCc1c2c(nc3ccc(O)cc13)-c1cc3c(c(=O)n1C2)COC(=O)[C@]3(O)CC + CN(C)c1ccc(Nc2c3ccc(NC(=O)CCN4CCCC4)cc3nc3cc(NC(=O)CCN4CCCC4)ccc23)cc1
48.2%

Determine from records and report viability, T/C for Cc1cccc(N(C)C(=O)C2C(O)CCN2c2nc(C)cc(C(F)(F)F)c2C#N)c1 (stereo unspecified) + Cc1[nH]c2ccc(F)cc2c1-c1nc2c3cccnc3c3ncccc3c2[nH]1
96.1%

* * *

# Tested on: 857933-349-R-J2-PDC complex spheroids, viability
# Run Description: Anticancer human tumor 857933-349-R-J2-PDC cell line growth inhibition [GQUAD];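 also: spheroids exposed to compounds for one week before readout; percent viability relative to vehicle DMSO wells taken as 100%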
# Condition Info: second compound 0.0316 µM; first compound 0.0316 µM; hits give low values
# From the text: DNA G-quadruplex Stabilizer Agents in Combinations in Complex Spheroids A high-throughput screen of multi-cell type tumor spheroids was designed to identify active combinations of DNA G-quadruplex stabilizer agents and targeted small molecules. […] Compounds. […] If the clinical Cmax for an agent had not been determined, the highest concentration tested was 10 microM. […]
Measurement Label: viability, T/C (%)
Numeric answer only, unit % assumed.

Determine from records and report viability, T/C for CC1COCCN1c1cc(C2(O)CC3CCC(C2)O3)c2cnn(-c3ccn[nH]3)c2n1 (stereo unspecified) + CN(C)c1ccc(Nc2c3ccc(NC(=O)CCN4CCCC4)cc3nc3cc(NC(=O)CCN4CCCC4)ccc23)cc1
104

Determine from records and report viability, T/C for C=CCn1c(=O)c2cnc(Nc3ccc(N4CCN(C)CC4)cc3)nc2n1-c1cccc(C(C)(C)O)n1 + CN(C)c1ccc(Nc2c3ccc(NC(=O)CCN4CCCC4)cc3nc3cc(NC(=O)CCN4CCCC4)ccc23)cc1
102

Determine from records and report viability, T/C for CC1COCCN1c1cc(-c2ccnn2C)c2ccnc(-c3ccn[nH]3)c2n1 (stereo unspecified) + Cc1cnc(CNC(=O)c2c(=O)c3ccc(N4CCCN(C)CC4)nc3n3c2sc2ccccc23)cn1
49.6

Determine from records and report viability, T/C for CC1COCCN1c1cc(C2(S(C)(=N)=O)CC2)nc(-c2ccnc3[nH]ccc23)n1 (stereo unspecified) + Cc1cnc(CNC(=O)c2c(=O)c3ccc(N4CCCN(C)CC4)nc3n3c2sc2ccccc23)cn1
82

Determine from records and report viability, T/C for CCc1c2c(nc3ccc(O)cc13)-c1cc3c(c(=O)n1C2)COC(=O)[C@]3(O)CC + CN(C)c1ccc(Nc2c3ccc(NC(=O)CCN4CCCC4)cc3nc3cc(NC(=O)CCN4CCCC4)ccc23)cc1
40.4

Determine from records and report viability, T/C for COc1ccc([C@@H](O)c2cc(-c3ncnc4cc(N5CCOCC5)ccc34)c(F)cc2Cl)nn1 + CN(C)c1ccc(Nc2c3ccc(NC(=O)CCN4CCCC4)cc3nc3cc(NC(=O)CCN4CCCC4)ccc23)cc1
110

Determine from records and report viability, T/C for CC1COCCN1c1cc(C2(O)CC3CCC(C2)O3)c2cnn(-c3ccn[nH]3)c2n1 (stereo unspecified) + Cc1[nH]c2ccc(F)cc2c1-c1nc2c3cccnc3c3ncccc3c2[nH]1
76.9

Determine from records and report viability, T/C for C#Cc1c(F)ccc2cc(O)cc(-c3ncc4c(N5CC6CCC(C5)N6)nc(OCC56CCCN5CC(F)C6)nc4c3F)c12 (stereo unspecified) + Cc1[nH]c2ccc(F)cc2c1-c1nc2c3cccnc3c3ncccc3c2[nH]1
109

Determine from records and report viability, T/C for Nc1ccn(C2OC(CO)C(O)C2(F)F)c(=O)n1 (stereo unspecified) + CN(C)c1ccc(Nc2c3ccc(NC(=O)CCN4CCCC4)cc3nc3cc(NC(=O)CCN4CCCC4)ccc23)cc1
99.8

Determine from records and report viability, T/C for CCCS(=O)(=O)Nc1ccc(F)c(C(=O)c2c[nH]c3ncc(-c4ccc(Cl)cc4)cc23)c1F + Cc1cnc(CNC(=O)c2c(=O)c3ccc(N4CCCN(C)CC4)nc3n3c2sc2ccccc23)cn1
85.1

Determine from records and report viability, T/C for Cc1cccc(N(C)C(=O)C2C(O)CCN2c2nc(C)cc(C(F)(F)F)c2C#N)c1 (stereo unspecified) + Cc1cnc(CNC(=O)c2c(=O)c3ccc(N4CCCN(C)CC4)nc3n3c2sc2ccccc23)cn1
92

Determine from records and report viability, T/C for Cn1ncnc1[C@H]1c2n[nH]c(=O)c3cc(F)cc(c23)N[C@@H]1c1ccc(F)cc1 + CN(C)c1ccc(Nc2c3ccc(NC(=O)CCN4CCCC4)cc3nc3cc(NC(=O)CCN4CCCC4)ccc23)cc1
106

Determine from records and report viability, T/C for CC1COCCN1c1cc(-c2ccnn2C)c2ccnc(-c3ccn[nH]3)c2n1 (stereo unspecified) + CN(C)c1ccc(Nc2c3ccc(NC(=O)CCN4CCCC4)cc3nc3cc(NC(=O)CCN4CCCC4)ccc23)cc1
98.3

Determine from records and report viability, T/C for CCCS(=O)(=O)Nc1ccc(F)c(C(=O)c2c[nH]c3ncc(-c4ccc(Cl)cc4)cc23)c1F + Cc1[nH]c2ccc(F)cc2c1-c1nc2c3cccnc3c3ncccc3c2[nH]1
101

Determine from records and report viability, T/C for CC(C)(O)C1CCC(Nc2ccc3ncc(-c4cccc(C(F)(F)F)c4)n3n2)CC1 (stereo unspecified) + CN(C)c1ccc(Nc2c3ccc(NC(=O)CCN4CCCC4)cc3nc3cc(NC(=O)CCN4CCCC4)ccc23)cc1
117

Determine from records and report viability, T/C for CC[C@@]1(O)C(=O)OCc2c1cc1n(c2=O)Cc2cc3c(CN(C)C)c(O)ccc3nc2-1 + CN(C)c1ccc(Nc2c3ccc(NC(=O)CCN4CCCC4)cc3nc3cc(NC(=O)CCN4CCCC4)ccc23)cc1
98.2

Determine from records and report viability, T/C for O=C(c1cc(Cc2n[nH]c(=O)c3ccccc23)ccc1F)N1CCN(C(=O)C2CC2)CC1 + Cc1cnc(CNC(=O)c2c(=O)c3ccc(N4CCCN(C)CC4)nc3n3c2sc2ccccc23)cn1
101

Determine from records and report viability, T/C for CC1COCCN1c1cc(-c2ccnn2C)c2ccnc(-c3ccn[nH]3)c2n1 (stereo unspecified) + Cc1[nH]c2ccc(F)cc2c1-c1nc2c3cccnc3c3ncccc3c2[nH]1
73.7

Determine from records and report viability, T/C for C=CCn1c(=O)c2cnc(Nc3ccc(N4CCN(C)CC4)cc3)nc2n1-c1cccc(C(C)(C)O)n1 + Cc1cnc(CNC(=O)c2c(=O)c3ccc(N4CCCN(C)CC4)nc3n3c2sc2ccccc23)cn1
92.5

Determine from records and report viability, T/C for CCCS(=O)(=O)Nc1ccc(F)c(C(=O)c2c[nH]c3ncc(-c4ccc(Cl)cc4)cc23)c1F + CN(C)c1ccc(Nc2c3ccc(NC(=O)CCN4CCCC4)cc3nc3cc(NC(=O)CCN4CCCC4)ccc23)cc1
108

Determine from records and report viability, T/C for CCc1c2c(nc3ccc(O)cc13)-c1cc3c(c(=O)n1C2)COC(=O)[C@]3(O)CC + Cc1cnc(CNC(=O)c2c(=O)c3ccc(N4CCCN(C)CC4)nc3n3c2sc2ccccc23)cn1
16.5
